system: LPS-stimulated RAW 264.7 cells (LPS-inducible arginase II activity); experiment: Urea production (LPS-inducible arginase II functional assay) in LPS-stimulated RAW 264.7 cells; format: cell-based, murine; settings: Mus musculus, RAW264.7; responsive cultures; estimated; read-out: IC50 (concentration of 50% inhibition) with respect to urea production
measured property: IC50

>>> measured_result("CC(=NNC(=N)N)c1cc(NC(=O)CCCCCCCCC(=O)Nc2cc(C(C)=NNC(=N)N)cc(C(C)=NNC(=N)N)c2)cc(C(C)=NNC(=N)N)c1")
"< 2000 nM"

====

test system: LPS-stimulated RAW 264.7 cells (TNF production); experiment: TNF production (ELISA) in LPS-stimulated RAW 264.7 cells; assay type: cell-based, murine; conditions: Mus musculus, RAW264.7; responsive cultures; stated as approximately the same as the urea IC50; read-out: IC50 with respect to TNF production
pIC50: −log10 of the molar value.
measured property: pIC50

>>> measured_result("CC(=NNC(=N)N)c1cc(NC(=O)CCCCCCCCC(=O)Nc2cc(C(C)=NNC(=N)N)cc(C(C)=NNC(=N)N)c2)cc(C(C)=NNC(=N)N)c1")
"> 5.70"
